Biological target: human MRGPRX2 (Homo sapiens)
Construct: expressed in transfected cells
Sequence (Q96LB1 1-330): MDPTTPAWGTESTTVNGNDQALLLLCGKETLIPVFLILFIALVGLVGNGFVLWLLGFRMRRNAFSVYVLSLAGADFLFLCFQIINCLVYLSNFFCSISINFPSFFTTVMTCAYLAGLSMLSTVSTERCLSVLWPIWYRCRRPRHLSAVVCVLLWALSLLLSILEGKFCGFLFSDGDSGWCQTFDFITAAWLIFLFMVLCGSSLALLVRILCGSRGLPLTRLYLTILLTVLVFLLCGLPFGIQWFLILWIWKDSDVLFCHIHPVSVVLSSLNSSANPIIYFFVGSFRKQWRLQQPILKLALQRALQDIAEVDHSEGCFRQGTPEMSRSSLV
Experiment: MRGPRX2 antagonist activity, IP-One HTRF assay in CHO cells expressing human MRGPRX2 versus Cortistatin-14
Type: cell-based
Details: CHO cells stably expressing human MRGPRX2; versus 0.3 uM Cortistatin-14 agonist; IP-1 HTRF readout; read-out: MRGPR2 Antagonist Activity
Documented IC50 across a set of compounds

>  <recordSmiles>
CN(C)c1ccc(C(=O)N[C@H]2CC[C@@H](Nc3cc(C(F)(F)F)nc(C(F)(F)F)c3)CC2)cc1

>  <result>
0.1 to 0.5 µM

$$$$
>  <recordSmiles>
N#Cc1ccc(N[C@H]2CC[C@@H](NC(=O)c3ccc4[nH]ncc4c3)CC2)cc1C(F)(F)F

>  <result>
< 0.1 µM

$$$$
>  <recordSmiles>
N#Cc1ccc(N[C@H]2CC[C@@H](NC(=O)c3ccc(N4CCOCC4)cc3)CC2)cc1C(F)(F)F

>  <result>
0.1 to 0.5 µM

$$$$
>  <recordSmiles>
N#Cc1ccc(N[C@H]2CC[C@@H](NC(=O)c3cccc4[nH]ccc34)CC2)cc1C(F)(F)F

>  <result>
< 0.1 µM

$$$$
>  <recordSmiles>
Cc1cc(N[C@H]2CC[C@@H](NC(=O)c3ccc(N(C)CC(F)F)cc3)CC2)cc(C(F)(F)F)c1C#N

>  <result>
< 0.1 µM

$$$$
>  <recordSmiles>
N#Cc1ccc(N[C@H]2CC[C@@H](NC(=O)c3cn[nH]c3C#N)CC2)cc1C(F)(F)F

>  <result>
< 0.1 µM

$$$$
>  <recordSmiles>
O=C(N[C@H]1CC[C@@H](Nc2cc(C3CC3)nc(C(F)(F)F)c2)CC1)c1ccc(F)cc1

>  <result>
1 to 2.5 µM

$$$$
>  <recordSmiles>
O=C(N[C@@H]1CCC[C@H](Nc2cc(C(F)(F)F)nc(C(F)(F)F)c2)C1)c1ccccc1

>  <result>
> 2.5 µM

$$$$

[in] Recorded IC50 for Cc1cc(N[C@H]2CC[C@@H](NC(=O)c3ccc4nccn4c3)CC2)cc(C(F)(F)F)c1C#N , please?
[out] < 0.1 µM

[in] Recorded IC50 for COc1ccc(C(=O)N[C@H]2CC[C@@H](Nc3cc(C(F)(F)F)cc(C(F)(F)F)c3)CC2)cc1 , please?
[out] > 2.5 µM

[in] Recorded IC50 for CS(=O)(=O)Nc1cccc(C(=O)N[C@H]2CC[C@@H](Nc3cc(C(F)(F)F)nc(C(F)(F)F)c3)CC2)c1 , please?
[out] 0.1 to 0.5 µM

* * *

Molecular target: human MRGPRX2 (Homo sapiens, UniProt Q96LB1)
Construct: expressed in transfected cells
Sequence (Q96LB1 1-330): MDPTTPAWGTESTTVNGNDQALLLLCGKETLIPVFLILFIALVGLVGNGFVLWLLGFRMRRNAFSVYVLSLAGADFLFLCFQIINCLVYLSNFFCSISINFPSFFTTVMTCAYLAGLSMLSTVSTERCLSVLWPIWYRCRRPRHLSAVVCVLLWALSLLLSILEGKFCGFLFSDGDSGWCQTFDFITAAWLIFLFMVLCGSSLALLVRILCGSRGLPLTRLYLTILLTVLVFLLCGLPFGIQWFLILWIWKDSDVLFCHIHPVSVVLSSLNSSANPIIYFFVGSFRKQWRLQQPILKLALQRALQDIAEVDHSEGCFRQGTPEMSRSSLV
Experiment: MRGPRX2 antagonist activity, IP-One HTRF assay in CHO cells expressing human MRGPRX2 versus Cortistatin-14
Format: cell-based
pIC50: −log10 of the molar value.
measurementLabel: pIC50

Here is how some compounds turned out for pIC50.
>  <recordSmiles>
CN(c1ccc(C(=O)N[C@H]2CC[C@@H](Nc3ccc(C#N)c(C(F)(F)F)c3)CC2)cc1)S(C)(=O)=O

>  <pIC50>
6.30 to 7.00

$$$$
>  <recordSmiles>
N#Cc1ccc(N[C@H]2CC[C@@H](NC(=O)c3c[nH]c4ccccc34)CC2)cc1C(F)(F)F

>  <pIC50>
> 7.00

$$$$
>  <recordSmiles>
Cn1nccc1C(=O)N[C@H]1CC[C@@H](Nc2ccc(C#N)c(C(F)(F)F)c2)CC1

>  <pIC50>
6.30 to 7.00

$$$$

Please find the next compound below.
[in] Recorded pIC50 for N#Cc1ccc(N[C@H]2CC[C@@H](NC(=O)c3ccc4nccn4c3)CC2)cc1C(F)(F)F , please?
[out] 6.30 to 7.00
